Data provenance is PubChem BioAssay.

Please respond with reported inhibition for every item in the list.
- system.tested: Pantothenate synthetase (Mycobacterium tuberculosis (strain ATCC 25618 / H37Rv)) (UniProt P9WIL5)
- Sequence (P9WIL5 whole entry, looked up): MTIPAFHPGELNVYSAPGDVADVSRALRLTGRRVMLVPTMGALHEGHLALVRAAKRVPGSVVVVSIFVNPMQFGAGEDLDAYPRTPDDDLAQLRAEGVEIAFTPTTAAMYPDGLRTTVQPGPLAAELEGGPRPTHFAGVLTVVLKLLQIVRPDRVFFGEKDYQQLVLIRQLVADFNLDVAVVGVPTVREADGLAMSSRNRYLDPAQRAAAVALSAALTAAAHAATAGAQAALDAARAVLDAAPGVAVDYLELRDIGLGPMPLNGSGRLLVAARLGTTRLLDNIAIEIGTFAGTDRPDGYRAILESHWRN
- protocol.notes: Coupled enzyme confirmation of inhibitors against recombinant Mtb PanC (AID 375);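 also: 0% = full reaction with vehicle and 100% = no enzyme background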
- condition.context: coupled enzyme assay; at 10 µM, hits give high values
One number for each entry, in %.

Guide cases for inhibition, answers given:
CC1CN(C(=O)c2cc3cc(Cl)cc(Cl)c3oc2=O)CC(C)O1 (stereo not drawn) yielded inhibition of 0

Looking up CCSc1nnc(NC(=O)c2ccccn2)s1 , I see its inhibition listed as 1

Kindly note the recorded inhibition for CCN(CC)CCN1C(=O)Cn2c(C)c(C)c3cccc1c32 , which is 1

Lab note: O=C(NCc1cccs1)C1CCN(S(=O)(=O)c2cccs2)CC1 gave inhibition of 0

Data point: Cc1cccc(NC(=O)CC(C)(C)C)c1 ; inhibition = 0

The compound listed as CC(=O)N(c1ccc(N(C(C)=O)S(=O)(=O)c2cccs2)cc1)S(=O)(=O)c1cccs1 shows inhibition equal to 0

For each of the compounds below, state inhibition.
1. Cn1c(C(=O)NCCN2CCN(c3ccccc3F)CC2)cc2c(=O)n(C)c3ccccc3c21
2. O=C(NCc1ccccc1)c1cc(-c2ccco2)on1
3. Cc1[nH]c(=O)[nH]c(=O)c1S(=O)(=O)Nc1ccc(Oc2ccccc2)cc1
4. COc1ccc(C(=O)NCc2nnc(SCC(=O)Nc3cc(C)cc(C)c3)o2)cc1OC
5. CC[C@H](C)C(=O)O[C@H]1C[C@@H](C)C=C2C=C[C@H](C)[C@H](CC[C@@H]3C[C@@H](O)CC(=O)O3)[C@H]21

Reply:
[7, 0, 6, 0, 5]

Parameters: items (list). Returns: inhibition for each item.
1. Cc1cccc2cc(COC(=O)C(C)(C)C)c(=O)[nH]c12
2. CC(C)NC(=O)NC(=O)COc1cccc2c1OC(C)(C)C2
3. CCC(C(=O)Nc1ncccn1)(C(F)(F)F)C(F)(F)F
4. Clc1ccc(-n2nnnc2Sc2ncnc3sccc23)cc1

Reply:
1. 0
2. 0
3. 0
4. 0

---

- system.tested: Pantothenate synthetase (Mycobacterium tuberculosis (strain ATCC 25618 / H37Rv))
- protocol.notes: Coupled enzyme confirmation of inhibitors against recombinant Mtb PanC (AID 375);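 also: 0% = full reaction with vehicle and 100% = no enzyme background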
- condition.context: coupled enzyme assay; at 10 µM, hits give high values
reported.property: inhibition (%)
One number for each entry, in %.

Illustrative cases are given below, each with its answer.
Looking up Cc1csc(NC(=O)CCn2c(=O)oc3ccccc32)n1 , I see its inhibition listed as 1

// recorded inhibition for Cc1ccccc1-c1nc(CS(=O)(=O)CC(=O)N(C)C2CCCCC2)c(C)o1 : 0

// for each compound in input: emit inhibition
1. CCCCOC(=O)CSc1nc2c(cc1C#N)C(=O)CC(C)(C)C2
2. CCN1C(=C2C(=O)c3ccccc3C2=O)C=Cc2ccccc21
3. O=C1c2ccccc2C(=O)N1Cc1nc2ccccc2c(=O)n1CCN1CCOCC1
4. O=C(O)c1cccc(NS(=O)(=O)c2ccc3nnn(O)c3c2)c1

Reply:
[0, 0, 1, 0]

---

- system.tested: Pantothenate synthetase (Mycobacterium tuberculosis (strain ATCC 25618 / H37Rv))
- protocol.notes: Coupled enzyme confirmation of inhibitors against recombinant Mtb PanC (AID 375);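 also: 0% = full reaction with vehicle and 100% = no enzyme background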
- condition.context: coupled enzyme assay; at 10 µM, hits give high values
reported.property: inhibition (%)
One number for each entry, in %.

Here is how some compounds turned out for inhibition.
Kindly note the recorded inhibition for CCC(c1nnnn1CCOC)N(Cc1ccc(C)cc1)Cc1cc2cc(OC)ccc2[nH]c1=O (stereo not given) , which is 0

Looking up COCCNC(=O)C(c1ccc(O)cc1)N(Cc1ccco1)C(=O)CCC(=O)Nc1nccs1 (stereo not given) , I see its inhibition listed as 1

# compound Cc1c(NC(=O)c2ccc(CN3CCc4ccccc4C3)cc2)c(=O)n(-c2ccccc2)n1C ; its inhibition = 0

inhibition in this record for CN1CCN(C(=O)NC2CCCN2S(=O)(=O)c2ccc(Cl)cc2)CC1 (stereo not given) : 0

Looking up Cc1c(C(=O)NCCC2=CCCCC2)oc2ccc(S(=O)(=O)N3CCC4(CC3)OCCO4)cc12 , I see its inhibition listed as 0

Report inhibition for every entry below.
1. CCOc1ccccc1C(=O)NC(C)c1ccc2c(c1)OCO2 (stereo not given)
2. COC(=O)C1C2C=CC3(CN(CC4CCCO4)C(=O)C13)O2 (stereo not given)
3. CC1(C)CC(=O)c2sc(NS(C)(=O)=O)nc2C1
4. CCOc1cc(NC(=O)c2ccccn2)c(OCC)cc1NC(=O)CC(C)C

Reply:
1. 0
2. 0
3. 0
4. 11

Entry Cc1ccc(Br)cc1S(=O)(=O)N1CCN(c2ccccc2)CC1 , inhibition reported as 0
